Where do the numbers come from? From patent US8729097B2.

- ASSAY_TARGET: hMetAP1 (Homo sapiens, UniProt P53582)
- Construct: made in house
- ASSAY_INFO: MetAP enzymatic assay, hMetAP1
- Type: biochemical
- RUN_CONDITIONS: Table 3; in the presence of Mn^2+; read-out: hMetAP1 Mn^2+ IC50
pIC50: −log10 of the molar value.
RECORDED_ENDPOINT: pIC50

## Input Identify the reported pIC50 for the following entry. `O=C(Nc1ccccc1)Oc1c(Cl)cc(Cl)c2cccnc12`
## Output < 4.30

## Input Identify the reported pIC50 for the following entry. `O=C(Nc1cc(Cl)cc(Cl)c1)Oc1c(Cl)cc(Cl)c2cccnc12`
## Output < 4.30

## Input Identify the reported pIC50 for the following entry. O=C(Nc1ccccc1)Oc1ccc(Cl)c2cccnc12 [Entry 4e, 5-Chloro-8-quinolyl-N-phenylcarbamate]
## Output 4.92

## Input Identify the reported pIC50 for the following entry. `O=C(Nc1cc(Cl)cc(Cl)c1)Oc1ccc(Cl)c2cccnc12`
## Output 4.90

## Input Identify the reported pIC50 for the following entry. `O=C(Nc1ccc(F)cc1)Oc1c(Cl)cc(Cl)c2cccnc12`
## Output < 4.30

## Input Identify the reported pIC50 for the following entry. `O=C(NCCCl)Oc1c(Cl)cc(Cl)c2cccnc12`
## Output < 4.30

## Input Identify the reported pIC50 for the following entry. `O=C(Nc1cc(F)cc(F)c1)Oc1ccc(Cl)c2cccnc12`
## Output < 4.30
